method.description: NCI Yeast Anticancer Drug Screen. Data for the cln2 rad14 strain (AID 165)
experimental.parameters: S. cerevisiae cln2 rad14 strain, at 50.0 µM
Compounds without any hit were thinned out: in the full panel of roughly 79,000, 15% have a hit. Activity calls are given as the source filed them. Rule as the data show it: active = growth inhibition above about 70%; inactive = the rest.
Write down one outcome, taken from y (active), n (inactive)

Here's what some known entries look like.
Nc1nc(N)c2cnnn2n1	n
c1ccc2c(c1)cc1ccc3cccc4ccc2c1c34	n
COc1ccccc1[As]=[As]c1ccccc1OC (centres undefined)	y

For COc1nc2ccccc2nc1N1CC1 , which call appears in the assay record?
n

For Fc1ccc(C(Cl)(Cl)Cl)cc1 , which call appears in the assay record?
n

For CC[CH](C)[Sn](=[O])[c]1ccccc1 (centres undefined) , which call appears in the assay record?
n

For CCCCOP(=O)(OCCCC)OC(C)C(C)=O (centres undefined) , which call appears in the assay record?
n

For COc1ccc(CC2C3=C(CCCC3)CCN2C)cc1 (centres undefined) , which call appears in the assay record?
n
